Target: T1, recombinant human soluble gpNMB (recombinant human gpNMB-FLAG-His) (human, UniProt Q14956 23-498)
T1 sequence: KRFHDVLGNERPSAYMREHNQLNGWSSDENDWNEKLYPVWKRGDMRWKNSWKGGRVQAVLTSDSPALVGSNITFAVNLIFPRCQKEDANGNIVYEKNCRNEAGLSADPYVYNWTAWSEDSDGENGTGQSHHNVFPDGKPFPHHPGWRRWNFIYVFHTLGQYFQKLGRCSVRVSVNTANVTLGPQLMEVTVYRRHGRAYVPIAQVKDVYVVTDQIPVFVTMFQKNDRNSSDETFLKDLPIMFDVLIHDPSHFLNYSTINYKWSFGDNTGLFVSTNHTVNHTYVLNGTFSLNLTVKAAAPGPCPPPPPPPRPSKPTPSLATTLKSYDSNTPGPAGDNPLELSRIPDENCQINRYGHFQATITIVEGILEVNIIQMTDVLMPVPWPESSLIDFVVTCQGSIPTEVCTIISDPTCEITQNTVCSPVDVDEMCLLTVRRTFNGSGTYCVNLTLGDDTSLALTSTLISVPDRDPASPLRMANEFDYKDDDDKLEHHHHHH
Test: antigen ELISA, vs hGPN18-2_H2L3
Recorded measurements of Relative binding activity, one per entry
Give your answer as a number; write no unit.

{"columns": ["binder", "Relative binding activity"],
 "data": [
  ["hGPN18-2_H2L3 VH Y112A (antibody, V domains shown) VH: QVQLVQSGPGLVQPTQTLTLTCSFSGFSLSTSVMGVGWIRQPSGKGLEWLADIWWDDDKDYNPSLKSRLTISKDTSKNQVVLTMTNMDTVDTATYYCARTYYSNYEYYGMDAWGQGTLVTVSS VL: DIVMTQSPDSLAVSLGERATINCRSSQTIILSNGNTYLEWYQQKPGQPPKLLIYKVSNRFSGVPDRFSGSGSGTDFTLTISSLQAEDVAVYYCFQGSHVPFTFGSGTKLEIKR", 1.05]
]}

For the next question, use this binder.
**Q:** Which Relative binding activity is listed for hGPN18-2_H2L3 VH E106A (antibody, V domains shown) VH: QVQLVQSGPGLVQPTQTLTLTCSFSGFSLSTSVMGVGWIRQPSGKGLEWLADIWWDDDKDYNPSLKSRLTISKDTSKNQVVLTMTNMDTVDTATYYCARTYYSNYAYYGMDYWGQGTLVTVSS VL: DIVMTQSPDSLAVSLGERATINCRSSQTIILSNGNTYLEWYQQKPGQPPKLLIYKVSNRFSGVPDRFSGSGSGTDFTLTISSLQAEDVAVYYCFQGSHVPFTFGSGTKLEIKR ?
**A:** 0.64
